# Tested on: IGROV1 ovarian
# EXPERIMENT_NOTES: NCI tumour cell line growth inhibition, 48 h; in the data active = GI50 below about 0.43 µM; inactive = the rest
Please state which outcome applies, choosing from T (active), F (inactive)

> print(dat)
                                   molecule     test.target  label.class
1  CC(=O)OC[C@]12CC[C@@H](C(=O)CBr)[C@@H]1[C@H]1CC[C@@H]3[C@@]4(C)CCCNC(C)(C)[C@@H]4CC[C@@]3(C)[C@]1(C)CC2  IGROV1 ovarian            F
2  CCOC(=O)c1c2c(n(Cc3ccc(Cl)cc3Cl)c1C)-c1nc[nH]c1C(=O)C2=O  IGROV1 ovarian            F
3   NC(=O)c1c(NC(=O)c2ccccn2)sc2c1CCC(=O)C2  IGROV1 ovarian            F
4  COc1cccc2c1C(=O)c1c(O)c3c(c(O)c1C2=O)CC(O)(C(O)CO)CC3OC1CC(N2CCOCC2)C(O)C(C)O1 (configuration not stated)  IGROV1 ovarian            T

Incoming: Called result for C[C@]12CCc3sc(NCCc4ccccc4)nc3C1=CC[C@@H]1[C@@H]2CC[C@]2(C)C(=O)CC[C@@H]12
Outgoing: F

Incoming: Also need COc1cc(Nc2c(C#N)cnc3cc(OCCCN4CCN(C)CC4)c(OC)cc23)c(Cl)cc1Cl , thanks.
Outgoing: T

Incoming: Also need COc1cc2c(cc1O)CC[C@@H]1[C@@H]2CC[C@]2(C)[C@@H](OCCN(C)C)CC[C@@H]12 , thanks.
Outgoing: F

* * *

# Test system: SNB-19 CNS
# EXPERIMENT_NOTES: NCI tumour cell line growth inhibition, 48 h; in the data active = GI50 below about 0.43 µM; inactive = the rest
Please state which outcome applies, choosing from Yes for active, No for inactive

COMPOUND	LABEL_CLASS
COC1/C=C/C(C)C(C(C)C(OC)C(C)CCC(=O)C(C)C(C/C=C/N(C)C=O)OC)OC(=O)/C=C/C=C(\C)CC(OC)CC2=CC(=O)O[C@H](C2)C(C)C(OC)CC(OC)/C=C/C(C)C(OC)C1 (stereo not given in full)	Yes
COc1cc2c(cc1O)CC[C@@H]1[C@@H]2CC[C@]2(C)[C@@H](OCCN(C)C)CC[C@@H]12	No
C[C@]12CCc3sc(NCCc4ccccc4)nc3C1=CC[C@@H]1[C@@H]2CC[C@]2(C)C(=O)CC[C@@H]12	No
C1COCCN1.C1COCCN1.NC1CCCCC1N.[Cl-].[Pt+2] (stereo not given)	No

Incoming: Called result for CC1(N)CCN(c2cccnc2NC(=O)c2nc(-c3ncccc3C(F)(F)F)cnc2N)CC1
Outgoing: No

* * *

Reported TGI values are given for each entry in this list.
# Test system: SN12C renal
# EXPERIMENT_NOTES: NCI tumour cell line growth inhibition, 48 h

Would you please look over these solved cases?
COMPOUND	TGI
COc1ccc(CC(=O)N2CCC3(C)CC(=O)CC=C23)cc1OC (configuration not stated)	> 100 µM
CN(C)C(=S)/N=c1\ssc(=S)n1Cc1ccccc1	> 63.1 µM
O=C(CC(=O)C1=CNc2ccccc2S1)C(=O)Nc1ccc(Cl)cc1	> 50 µM
COc1cccc(C2=C(c3c(C)n(C)c4ccccc34)C(=O)NC2=O)c1	> 25 µM

Incoming: Requested read-out: TGI. Entry: O=c1oc(Cl)c(Cl)c2ccccc12
Outgoing: 31.4 µM

Incoming: Also need O=C1NC2(CCCCCC2)C2CCCCCCC12O (configuration not stated) , thanks.
Outgoing: > 100 µM

Incoming: Also need CCCCc1ccc(Nc2nc(SC)c3[nH]cnc3n2)cc1 , thanks.
Outgoing: > 100 µM

Incoming: Also need COc1ccc2c(c1)[n+]([O-])c(-c1ccc(OC)c(OC)c1)c(N)[n+]2[O-] , thanks.
Outgoing: > 100 µM

Incoming: Also need COC(=O)[C@@]12OC[C@]34[C@H]([C@@H](O)[C@@H]1O)[C@@]1(C)[C@H](O)C(=O)C=C(C)[C@@H]1C[C@H]3OC(=O)C(OC(C)=O)[C@@H]24 (some centres not stated) , thanks.
Outgoing: 0.307 µM

Incoming: Also need Cc1ccc(N2C(=O)CS/C2=C(\C#N)c2nc3ccccc3[nH]2)cc1 , thanks.
Outgoing: > 100 µM

Incoming: Also need C=CCC(N(C)C(=O)[C@H](Cc1ccccc1)NC(=O)OCc1ccccc1)P(=O)(Oc1ccccc1)Oc1ccccc1 (some centres not stated) , thanks.
Outgoing: > 100 µM

Incoming: Also need Cc1cn(C2CC(O)C(COC(=O)NCCC(F)(F)C(F)(F)C(F)(F)C(F)(F)F)O2)c(=O)[nH]c1=O (configuration not stated) , thanks.
Outgoing: > 100 µM

Incoming: Also need CCCNC(=O)CCC(C)C1CCC2C3C(C[C@H](OC(C)=O)[C@]12C)[C@@]1(C)CCC2(C[C@H]1C[C@H]3OC(C)=O)OOC1(CC[C@]3(C)C4C[C@H](OC(C)=O)[C@]5(C)C(C(C)CCC(=O)NCCC)CCC5C4[C@H](OC(C)=O)C[C@@H]3C1)OO2 (some centres not stated) , thanks.
Outgoing: > 100 µM

Incoming: Also need CC(=O)OCC1OC(OC2CC3C(C)(C)C(OC(C)=O)CC[C@]3(C)C3CCC45CC4(CCC5[C@@H](C)C[C@H](O)C(O)C(C)(C)O)[C@]23C)C(O)C(O)C1O (some centres not stated) , thanks.
Outgoing: > 10 µM

Incoming: Also need Clc1cc2c(cc1Cl)CC(NCCN1CCCC1)CC2 (configuration not stated) , thanks.
Outgoing: 31.4 µM

Incoming: Also need COC1/C=C/C(C)C(C(C)C(OC)C(C)CCC(=O)C(C)C(C/C=C/N(C)C=O)OC)OC(=O)/C=C/C=C(\C)CC(OC)CC2=CC(=O)O[C@H](C2)C(C)C(OC)CC(OC)/C=C/C(C)C(OC)C1 (some centres not stated) , thanks.
Outgoing: 47.5 µM

Incoming: Also need Nc1ccc2c(SCc3ccc([N+](=O)[O-])cc3)c3ccccc3nc2c1 , thanks.
Outgoing: 34 µM
